assay: Multiple ascending dose IV study in healthy adult subjects (safety, PK); type: in vivo, human; conditions: human, plasma, intravenous, 200 mg, 200 mg weekly, Day 8
*1 amine or outer side, *2 acyl side, *3 side chain or, on linkers, in order; H or OH if unused. Where a SMILES comes first, the peptide text is derived from it. Bridges are numbered along the chain shown (N, C = ends). [ ]: non-standard residue; d: D form. The star is where a group is joined. Orn(4R-OH,5R-OCH2CH2NMe3+) = C[N+](C)(C)CCO[C@@H](N[*:3])[C@H](O)C[C@H](N[*:1])C(=O)[*:2]; pTerphenylCO(4''-OnC5H11) = CCCCCOc1ccc(-c2ccc(-c3ccc(C(=O)*)cc3)cc2)cc1; hTyr(3S-OH,4S-OH) = N[C@H](C(=O)O)[C@H](O)[C@@H](O)c1ccc(O)cc1; Pro(3S-OH,4S-Me) = C[C@H]1CN[C@H](C(=O)O)[C@H]1O; Hyp = O=C(O)[C@@H]1C[C@@H](O)CN1
measured.metric: Cmax (ng/mL)
Dear colleague, please return just the value in ng/mL, with no unit written.

Exercise: Specify measured Cmax for CCCCCOc1ccc(-c2ccc(-c3ccc(C(=O)N[C@H]4C[C@@H](O)[C@@H](OCC[N+](C)(C)C)NC(=O)[C@@H]5[C@@H](O)[C@@H](C)CN5C(=O)[C@H]([C@@H](C)O)NC(=O)[C@H]([C@H](O)[C@@H](O)c5ccc(O)cc5)NC(=O)[C@@H]5C[C@@H](O)CN5C(=O)[C@H]([C@@H](C)O)NC4=O)cc3)cc2)cc1 [CD101] ({pTerphenylCO(4''-OnC5H11)}-[Orn(4R-OH,5R-OCH2CH2NMe3+)]T[Hyp][hTyr(3S-OH,4S-OH)]T[Pro(3S-OH,4S-Me)]; lactam 1-C) .
Solution: 12400

---

assay: Multiple ascending dose IV study in healthy adult subjects (safety, PK); format: in vivo, human; conditions: human, plasma, intravenous, 100 mg, 100 mg weekly, Day 1; read-out: AUC0-168
*1 amine or outer side, *2 acyl side, *3 side chain or, on linkers, in order; H or OH if unused. Where a SMILES comes first, the peptide text is derived from it. Bridges are numbered along the chain shown (N, C = ends). [ ]: non-standard residue; d: D form. The star is where a group is joined. Orn(4R-OH,5R-OCH2CH2NMe3+) = C[N+](C)(C)CCO[C@@H](N[*:3])[C@H](O)C[C@H](N[*:1])C(=O)[*:2]; pTerphenylCO(4''-OnC5H11) = CCCCCOc1ccc(-c2ccc(-c3ccc(C(=O)*)cc3)cc2)cc1; hTyr(3S-OH,4S-OH) = N[C@H](C(=O)O)[C@H](O)[C@@H](O)c1ccc(O)cc1; Pro(3S-OH,4S-Me) = C[C@H]1CN[C@H](C(=O)O)[C@H]1O; Hyp = O=C(O)[C@@H]1C[C@@H](O)CN1
measured.metric: AUC(0-t) (µg·h/mL)
Answer in µg·h/mL, number only, no unit symbol.

Exercise: Consider the compound CCCCCOc1ccc(-c2ccc(-c3ccc(C(=O)N[C@H]4C[C@@H](O)[C@@H](OCC[N+](C)(C)C)NC(=O)[C@@H]5[C@@H](O)[C@@H](C)CN5C(=O)[C@H]([C@@H](C)O)NC(=O)[C@H]([C@H](O)[C@@H](O)c5ccc(O)cc5)NC(=O)[C@@H]5C[C@@H](O)CN5C(=O)[C@H]([C@@H](C)O)NC4=O)cc3)cc2)cc1 [CD101] ({pTerphenylCO(4''-OnC5H11)}-[Orn(4R-OH,5R-OCH2CH2NMe3+)]T[Hyp][hTyr(3S-OH,4S-OH)]T[Pro(3S-OH,4S-Me)]; lactam 1-C) and give its recorded AUC(0-t).
Solution: 299

---

assay: Multiple ascending dose IV study in healthy adult subjects (safety, PK); format: in vivo, human; details: human, plasma, intravenous, 400 mg, 400 mg weekly, Day 15
*1 amine or outer side, *2 acyl side, *3 side chain or, on linkers, in order; H or OH if unused. Where a SMILES comes first, the peptide text is derived from it. Bridges are numbered along the chain shown (N, C = ends). [ ]: non-standard residue; d: D form. The star is where a group is joined. Orn(4R-OH,5R-OCH2CH2NMe3+) = C[N+](C)(C)CCO[C@@H](N[*:3])[C@H](O)C[C@H](N[*:1])C(=O)[*:2]; pTerphenylCO(4''-OnC5H11) = CCCCCOc1ccc(-c2ccc(-c3ccc(C(=O)*)cc3)cc2)cc1; hTyr(3S-OH,4S-OH) = N[C@H](C(=O)O)[C@H](O)[C@@H](O)c1ccc(O)cc1; Pro(3S-OH,4S-Me) = C[C@H]1CN[C@H](C(=O)O)[C@H]1O; Hyp = O=C(O)[C@@H]1C[C@@H](O)CN1
measured.metric: Cmax (ng/mL)
Report the value in ng/mL with no unit label.

Exercise: Give the reported value of Cmax for this record: CCCCCOc1ccc(-c2ccc(-c3ccc(C(=O)N[C@H]4C[C@@H](O)[C@@H](OCC[N+](C)(C)C)NC(=O)[C@@H]5[C@@H](O)[C@@H](C)CN5C(=O)[C@H]([C@@H](C)O)NC(=O)[C@H]([C@H](O)[C@@H](O)c5ccc(O)cc5)NC(=O)[C@@H]5C[C@@H](O)CN5C(=O)[C@H]([C@@H](C)O)NC4=O)cc3)cc2)cc1 [CD101] ({pTerphenylCO(4''-OnC5H11)}-[Orn(4R-OH,5R-OCH2CH2NMe3+)]T[Hyp][hTyr(3S-OH,4S-OH)]T[Pro(3S-OH,4S-Me)]; lactam 1-C)
Solution: 30500

---

experiment: Single ascending dose IV study in healthy adult subjects (safety, PK); format: in vivo, human; conditions: human, plasma; 200 mg 1-hour IV infusion; read-out: C144
*1 amine or outer side, *2 acyl side, *3 side chain or, on linkers, in order; H or OH if unused. Where a SMILES comes first, the peptide text is derived from it. Bridges are numbered along the chain shown (N, C = ends). [ ]: non-standard residue; d: D form. The star is where a group is joined. Orn(4R-OH,5R-OCH2CH2NMe3+) = C[N+](C)(C)CCO[C@@H](N[*:3])[C@H](O)C[C@H](N[*:1])C(=O)[*:2]; pTerphenylCO(4''-OnC5H11) = CCCCCOc1ccc(-c2ccc(-c3ccc(C(=O)*)cc3)cc2)cc1; hTyr(3S-OH,4S-OH) = N[C@H](C(=O)O)[C@H](O)[C@@H](O)c1ccc(O)cc1; Pro(3S-OH,4S-Me) = C[C@H]1CN[C@H](C(=O)O)[C@H]1O; Hyp = O=C(O)[C@@H]1C[C@@H](O)CN1
measured.metric: concentration at 144 h (ng/mL)
Unit ng/mL implied. Number only.

Exercise: Look up and report measured concentration at 144 h for this entry: CCCCCOc1ccc(-c2ccc(-c3ccc(C(=O)N[C@H]4C[C@@H](O)[C@@H](OCC[N+](C)(C)C)NC(=O)[C@@H]5[C@@H](O)[C@@H](C)CN5C(=O)[C@H]([C@@H](C)O)NC(=O)[C@H]([C@H](O)[C@@H](O)c5ccc(O)cc5)NC(=O)[C@@H]5C[C@@H](O)CN5C(=O)[C@H]([C@@H](C)O)NC4=O)cc3)cc2)cc1 [CD101] ({pTerphenylCO(4''-OnC5H11)}-[Orn(4R-OH,5R-OCH2CH2NMe3+)]T[Hyp][hTyr(3S-OH,4S-OH)]T[Pro(3S-OH,4S-Me)]; lactam 1-C)
Solution: 2010

---

assay: Multiple ascending dose IV study in healthy adult subjects (safety, PK); format: in vivo, human; settings: human, plasma, intravenous, 400 mg, 400 mg weekly, Day 1; read-out: AUC0-168
*1 amine or outer side, *2 acyl side, *3 side chain or, on linkers, in order; H or OH if unused. Where a SMILES comes first, the peptide text is derived from it. Bridges are numbered along the chain shown (N, C = ends). [ ]: non-standard residue; d: D form. The star is where a group is joined. Orn(4R-OH,5R-OCH2CH2NMe3+) = C[N+](C)(C)CCO[C@@H](N[*:3])[C@H](O)C[C@H](N[*:1])C(=O)[*:2]; pTerphenylCO(4''-OnC5H11) = CCCCCOc1ccc(-c2ccc(-c3ccc(C(=O)*)cc3)cc2)cc1; hTyr(3S-OH,4S-OH) = N[C@H](C(=O)O)[C@H](O)[C@@H](O)c1ccc(O)cc1; Pro(3S-OH,4S-Me) = C[C@H]1CN[C@H](C(=O)O)[C@H]1O; Hyp = O=C(O)[C@@H]1C[C@@H](O)CN1
measured.metric: AUC(0-t) (µg·h/mL)
Give the number; µg·h/mL is assumed, so skip it.

Exercise: For the compound CCCCCOc1ccc(-c2ccc(-c3ccc(C(=O)N[C@H]4C[C@@H](O)[C@@H](OCC[N+](C)(C)C)NC(=O)[C@@H]5[C@@H](O)[C@@H](C)CN5C(=O)[C@H]([C@@H](C)O)NC(=O)[C@H]([C@H](O)[C@@H](O)c5ccc(O)cc5)NC(=O)[C@@H]5C[C@@H](O)CN5C(=O)[C@H]([C@@H](C)O)NC4=O)cc3)cc2)cc1 [CD101] ({pTerphenylCO(4''-OnC5H11)}-[Orn(4R-OH,5R-OCH2CH2NMe3+)]T[Hyp][hTyr(3S-OH,4S-OH)]T[Pro(3S-OH,4S-Me)]; lactam 1-C) , report AUC(0-t).
Solution: 1190

The measurements presented in this section are drawn from patent US20240108684A1.
